system-name: Fes (UniProt P07332)
Sequence (P07332 whole entry, looked up): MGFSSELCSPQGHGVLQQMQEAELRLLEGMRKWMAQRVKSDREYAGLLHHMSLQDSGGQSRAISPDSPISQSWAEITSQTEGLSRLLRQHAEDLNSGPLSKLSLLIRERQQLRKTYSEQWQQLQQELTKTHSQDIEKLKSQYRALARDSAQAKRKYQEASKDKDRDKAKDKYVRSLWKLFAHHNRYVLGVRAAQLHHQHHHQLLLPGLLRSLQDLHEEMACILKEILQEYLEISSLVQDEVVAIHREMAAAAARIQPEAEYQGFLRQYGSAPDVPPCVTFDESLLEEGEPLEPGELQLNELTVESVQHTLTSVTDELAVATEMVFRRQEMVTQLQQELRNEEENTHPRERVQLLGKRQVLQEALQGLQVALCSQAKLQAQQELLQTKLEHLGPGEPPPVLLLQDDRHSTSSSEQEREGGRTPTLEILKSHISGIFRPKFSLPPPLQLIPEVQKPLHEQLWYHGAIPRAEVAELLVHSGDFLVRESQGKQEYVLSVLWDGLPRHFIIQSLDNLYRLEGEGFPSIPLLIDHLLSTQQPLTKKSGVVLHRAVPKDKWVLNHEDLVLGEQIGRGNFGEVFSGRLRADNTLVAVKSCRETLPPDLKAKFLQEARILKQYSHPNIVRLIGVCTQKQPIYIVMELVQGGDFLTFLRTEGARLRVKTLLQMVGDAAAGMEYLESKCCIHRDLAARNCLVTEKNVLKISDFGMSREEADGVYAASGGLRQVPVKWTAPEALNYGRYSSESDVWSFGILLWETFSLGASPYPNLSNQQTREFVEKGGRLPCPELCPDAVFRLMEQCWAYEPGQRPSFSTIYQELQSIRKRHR
procedure-summary: phosphorylation enrichment, bacterial display (enrichment ratio); higher = better substrate or ligand; peptides without Tyr show the background;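 further: 11-residue human phosphosite peptides and single-mutation variants displayed on the E. coli surface, counted by deep sequencing, each peptide's frequency after selection divided by its frequency in the unselected input library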;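 further: frequency after pTyr selection over input frequency; kinase dosed for 20-30% of maximal phosphorylation in three min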
Entry flag: true (1) if phosphorylation enrichment reaches 1; false (0) if it does not.

// query Tell me whether phosphorylation enrichment is at least 1 here: KASRKYYAMKI [AKT3_Y173_G171R]
// result false (0)

// query Tell me whether phosphorylation enrichment is at least 1 here: TTPFNYSFIFK [RAB14_Y8_A4T_YF]
// result true (1)

// query Tell me whether phosphorylation enrichment is at least 1 here: KPIETYFSKNF [PLP1_Y50_L46P_YF]
// result false (0)
